Sourced from the PolyMetriX glass transition set

experimental.endpoint: glass transition temperature (°C)

*c1ccc(Oc2cc(C(C)(C)C)c(Oc3ccc(N4C(=O)c5ccc(S(=O)(=O)c6ccc7c(c6)C(=O)N(*)C7=O)cc5C4=O)cc3)cc2C(C)(C)C)cc1 (repeat unit)
263.00
*CCCCCCCc1nc2ccc(-c3ccc4nc(*)oc4c3)cc2o1 (repeat unit)
85.00

I. *CC(*)(C)C(=O)OCCCCCCOc1ccc(C(=O)Oc2ccc3ccc(=O)oc3c2)cc1 (repeat unit)
II. *Nc1cccc(NC(=O)c2cccc(C(=O)Nc3ccc(C(=O)NC(*)=S)cc3)c2)c1 (repeat unit)
III. *CCOc1ccc(C(=O)OC(=O)c2ccc(O*)cc2)cc1 (repeat unit)
Put these in order: smallest glass transition temperature first, largest last. As an answer, provide the labels arranged in the order called for.
III, I, II
(III: 45.00 °C, I: 102.00 °C, II: 270.00 °C)
